assay: fission yeast growth modulation, primary screen, strain 972, OD600, 24 h, no modulator (AID 1090);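 note: basal condition with compound alone and no growth modifier present; test concentration not given here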; conditions: S. pombe 972 growth, higher = more signal, called active from +8 up or from −8 down
measurementLabel: z-score
I'd appreciate a reply containing only the number, no unit.

O=C(c1ccccc1)N1Cc2ccccc2C[C@@]2(COC(c3ccc(OCCCO)cc3)=N2)C1=O
-11.1
O=C1O[C@H](c2ccccc2)[C@H](c2ccccc2)N2[C@H]1[C@@H](C(=O)N1CCCCCCC1)[C@]1(C(=O)Nc3ccc(C#CC4=CCCCC4)cc31)[C@H]2c1ccc(OCCO)cc1
-2.08
COC(=O)[C@@]1(CCC(=O)OC(C)(C)C)N=C(c2ccc(OCCCO)cc2)O[C@H]1c1ccccc1N=[N+]=[N-]
-0.786
C#C[C@H](O[Si](C#Cc1ccc(Oc2ccccc2)cc1)(C(C)C)C(C)C)c1ccccc1
-19.1
COCCOC(=O)N1C(=O)[C@@]2(c3cc(C#Cc4ccc(OC)cc4)ccc31)[C@H](c1ccc(OCCO)cc1)N1[C@H](c3ccccc3)[C@H](c3ccccc3)OC(=O)[C@H]1[C@@H]2C(=O)N1CCN(c2ncccn2)CC1
2.3

Data request: # return recorded z-score for input [N-]=[N+]=NCc1ccccc1[C@@H]1OC(c2ccc(OCCCO)cc2)=N[C@]1(Cc1ccccc1)C(=O)NCC(O)CO (some centres not stated)
Data returned: 0.0493

Data request: # return recorded z-score for input `C=C(CCCC)/C(=C/C[C@H](OC(=O)c1ccncc1)c1ccccc1OCCO)c1cnc2ccccc2c1`
Data returned: -1.14

----------
experiment: RPMI8226 myeloma cell viability, profiling panel, resazurin fluorescence, basal, 24 h, PK04 Diversity Set (AID 1180); settings: higher = more signal;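 note: RPMI8826 multiple myeloma cell line at 5000 cells per well; test concentration not given here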
So basically: z-score at 0.2 or higher? That is yes (1). Lower than 0.2? That is no (0).

COC(=O)[C@@]1(Cc2ccc(F)cc2)[C@H]2c3cc(C(=O)N4CCCC4)n(CCCNc4ncc(C(F)(F)F)cc4Cl)c3C[C@H]2CN1C(=O)c1ccccc1
no (0)
O=C1O[C@H](c2ccccc2)[C@H](c2ccccc2)N2[C@H]1[C@@H](C(=O)N1CCCCCCC1)[C@]1(C(=O)Nc3ccc(C#CCCO)cc31)[C@H]2c1ccccc1OCCO
no (0)
C=C(COC)/C(=C/C[C@@H](OC(=O)c1ccncc1)c1ccc(CO)o1)c1cc(C(=O)OC)ccc1OC
yes (1)
CCCC[C@@H]1C[C@H]1[C@@H](NC(=O)c1ccccc1)c1ccc(C(=O)OC)cc1
no (0)
CCCC[C@H]1OB(O)C[C@H]2C1=C(COC)Cn1c(=O)n(-c3ccccc3)c(=O)n12
no (0)

Data request: hey, is z-score for this one >= 0.2? `Cc1ccc(N2C(=O)c3ccccc3[C@@H](C(=O)NC3CC3)[C@@H]2c2ccc(CO)cc2)nc1`
Data returned: no (0)

Data request: hey, is z-score for this one >= 0.2? `COc1cc(COC(C)=O)ccc1OC(C)=O`
Data returned: yes (1)

Data request: hey, is z-score for this one >= 0.2? `CCCCCCc1nc(-c2ccc(OC)nc2)cc2c1[Si](C(C)C)(C(C)C)O[C@H]2c1ccccc1`
Data returned: yes (1)

----------
molecular target: Albumin (Bos taurus) (UniProt P02769); experiment: bovine serum albumin binders on microarray, profiling panel, artefact control for SMM control protein annotation, biochemical, small-molecule microarray, Alexa647 label, 635/667 nm fluorescence (AID 1118); conditions: BSA-A647 binding, fluorescence 635 nm, higher = more signal;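 note: score merges 667 nm emission intensity and signal-to-noise per printed compound spot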
Sequence (P02769 whole entry, looked up): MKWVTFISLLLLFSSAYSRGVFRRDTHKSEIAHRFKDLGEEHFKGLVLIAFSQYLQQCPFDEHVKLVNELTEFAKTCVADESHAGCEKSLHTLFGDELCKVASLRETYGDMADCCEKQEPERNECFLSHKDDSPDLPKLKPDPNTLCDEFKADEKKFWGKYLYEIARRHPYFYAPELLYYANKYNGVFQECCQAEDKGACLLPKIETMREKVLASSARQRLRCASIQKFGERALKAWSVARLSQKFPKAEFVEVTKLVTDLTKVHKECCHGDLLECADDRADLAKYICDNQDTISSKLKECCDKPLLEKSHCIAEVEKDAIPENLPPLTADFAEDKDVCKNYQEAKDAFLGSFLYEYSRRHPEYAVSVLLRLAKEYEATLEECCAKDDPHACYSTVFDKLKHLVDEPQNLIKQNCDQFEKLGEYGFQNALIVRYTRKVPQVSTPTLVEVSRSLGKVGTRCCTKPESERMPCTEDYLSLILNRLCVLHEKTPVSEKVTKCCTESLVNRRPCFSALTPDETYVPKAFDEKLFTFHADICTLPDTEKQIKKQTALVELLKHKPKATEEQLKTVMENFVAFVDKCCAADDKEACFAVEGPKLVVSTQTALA
measurementLabel: composite z-score
I'd appreciate a reply containing only the number, no unit.

Use these answered entries as a reference point.
CCCC[C@@H]1C[C@H]1[C@@H](NC(=O)c1ccccc1)c1ccc(C(=O)OC)cc1
-0.108
CCOC(=O)C1=CC[C@@H](c2ccccc2)N(S(=O)(=O)c2ccc(C)cc2)[C@H]1c1ccccc1C
0.767

Moving on to another compound below.
Data request: # return recorded composite z-score for input `C=CCNC(=O)[C@@H]1[C@H]2C(=O)O[C@H](c3ccccc3)[C@H](c3ccccc3)N2[C@H](c2ccc(O)cc2)[C@@]12C(=O)Nc1ccc(C#CCNC(N)=O)cc12`
Data returned: 0.118
